Target Desc: T1, MRG1 chromodomain mutant W58A (MRG1^CDW58A) (Arabidopsis thaliana, UniProt Q94C32 28-110, W58A)
T1 sequence: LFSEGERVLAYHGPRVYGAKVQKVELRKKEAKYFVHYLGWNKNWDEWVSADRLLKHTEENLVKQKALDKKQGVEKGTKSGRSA
Experimental Details: ITC
Primed or numbered codes have the meaning given here. No end group written: not given here. Me3″ = trimethyl (trimethyl-lysine)
Measurement Type: Kd (µM)
Kindly answer with a numeric value in µM, unit omitted.

Kd reading for ARTK(Me3″)QTARK (peptide, UniProt P68431 2-10, looked up, histone H3, residues 1-9, trimethylated at lysine 4) [histone H3K4me3 peptide (residues 1-9)] : 910
